test system: T. b. brucei s427; experiment: resazurin drug sensitivity assay, T. b. brucei s427 wild-type bloodstream forms; type: cell-based, Trypanosoma brucei brucei; conditions: SI = EC50 (HEK)/EC50(parasite)
Quick list: T. b. brucei s427 SI per entry.

INSERT INTO assay_data (compound, reported_metric, observed_value) VALUES
  ('CCC(=O)O[C@H]1[C@@H](OC(C)=O)[C@H]2[C@H]([C@@H]3[C@@H](OC(C)=O)[C@@H]4[C@H]([C@H](C)C=C5OC(=O)[C@@](C)(O)[C@@]54C)[C@]31C)[C@@H](O)C(=O)[C@H]1C[C@@H]3O[C@@H]3[C@H](OC(C)=O)[C@]21C [Compound 4, Taccalonolide A 12-propanoate]', 'T. b. brucei s427 SI', '>2.6'),
  ('CC(=O)O[C@H]1CC[C@]2(C)[C@H]3CC[C@]4(C)C(=CC[C@@]5(C)CCC(C)(C)C[C@H]54)[C@]3(C)CC[C@H]2C1(C)C [Compound 5, taraxerol acetate]', 'T. b. brucei s427 SI', '>3.1'),
  ('CC(=O)O[C@@H]1[C@H]2[C@H]3[C@H]([C@H](OC(C)=O)[C@H](OC(C)=O)[C@]2(C)[C@@H]2[C@@H]1[C@]1(C)C(=C[C@H]2C)OC(=O)[C@@]1(C)O)[C@]1(C)[C@H](C[C@@H]2O[C@@H]2[C@@H]1OC(C)=O)C(=O)[C@@H]3O [Compound 3, taccalonolide A]', 'T. b. brucei s427 SI', '>2.2'),
  ('COc1ccc2c(c1OC)CN(C)c1c-2ccc2cc3c(cc12)OCO3 [Compound 6, dihydrochelerythrin]', 'T. b. brucei s427 SI', 68.0),
  ('COc1ccc(C(=O)C[C@H](O)c2c(O)cc(OC)cc2OC)cc1 [Compound 1]', 'T. b. brucei s427 SI', '>8.5');

--- query ---
Record summary for CC(C)CNC(=O)/C=C/c1ccc2c(c1)OCO2 [Compound 7, fagaramide] : reported T. b. brucei s427 SI = 20.4

---

test system: T. equiperdum (BoTat1); assay: resazurin drug sensitivity assay, T. equiperdum; assay type: cell-based, Trypanosoma equiperdum; settings: RF = EC50 (parasite)/EC50(s427 WT)
reported.metric: T. equiperdum RF
I'd appreciate a reply containing only the number, no unit.

INSERT INTO results (compound, system_under_test, observed_value) VALUES
  ('CC(C)CNC(=O)/C=C/c1ccc2c(c1)OCO2 [Compound 7, fagaramide]', 'T. equiperdum (BoTat1)', 1.5),
  ('CCC(=O)O[C@H]1[C@@H](OC(C)=O)[C@H]2[C@H]([C@@H]3[C@@H](OC(C)=O)[C@@H]4[C@H]([C@H](C)C=C5OC(=O)[C@@](C)(O)[C@@]54C)[C@]31C)[C@@H](O)C(=O)[C@H]1C[C@@H]3O[C@@H]3[C@H](OC(C)=O)[C@]21C [Compound 4, Taccalonolide A 12-propanoate]', 'T. equiperdum (BoTat1)', 1.5),
  ('CC(=O)O[C@@H]1[C@H]2[C@H]3[C@H]([C@H](OC(C)=O)[C@H](OC(C)=O)[C@]2(C)[C@@H]2[C@@H]1[C@]1(C)C(=C[C@H]2C)OC(=O)[C@@]1(C)O)[C@]1(C)[C@H](C[C@@H]2O[C@@H]2[C@@H]1OC(C)=O)C(=O)[C@@H]3O [Compound 3, taccalonolide A]', 'T. equiperdum (BoTat1)', 0.86),
  ('COc1ccc2c(c1OC)CN(C)c1c-2ccc2cc3c(cc12)OCO3 [Compound 6, dihydrochelerythrin]', 'T. equiperdum (BoTat1)', 2.2),
  ('CC(=O)O[C@H]1CC[C@]2(C)[C@H]3CC[C@]4(C)C(=CC[C@@]5(C)CCC(C)(C)C[C@H]54)[C@]3(C)CC[C@H]2C1(C)C [Compound 5, taraxerol acetate]', 'T. equiperdum (BoTat1)', 0.13);

Shift focus to the following entry.
// COc1ccc(C(=O)C[C@H](O)c2c(O)cc(OC)cc2OC)cc1 : T. equiperdum RF value = 0.60
